Target: human GIP receptor (Homo sapiens)
Construct: host or cells: COS-7 (transient, calcium phosphate; pCMV-Script vector)
Sequence (P48546 22-466): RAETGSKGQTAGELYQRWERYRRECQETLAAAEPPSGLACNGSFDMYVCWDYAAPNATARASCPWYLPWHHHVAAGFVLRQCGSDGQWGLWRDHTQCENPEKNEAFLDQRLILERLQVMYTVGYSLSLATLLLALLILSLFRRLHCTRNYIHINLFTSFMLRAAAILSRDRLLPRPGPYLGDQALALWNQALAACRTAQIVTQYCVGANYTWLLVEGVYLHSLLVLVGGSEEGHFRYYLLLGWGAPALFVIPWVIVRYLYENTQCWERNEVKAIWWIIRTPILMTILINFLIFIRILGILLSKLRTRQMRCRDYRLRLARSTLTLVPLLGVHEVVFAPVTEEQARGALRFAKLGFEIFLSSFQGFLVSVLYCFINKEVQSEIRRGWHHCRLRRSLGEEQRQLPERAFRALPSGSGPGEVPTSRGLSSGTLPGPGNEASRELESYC
Assay: cAMP accumulation assay (HitHunter cAMP XS) in transiently transfected COS-7 cells expressing the human GIP receptor
Type: cell-based
Settings: Table 1; EC50 relative to native GIP
Ends that are not written are not given here.
Lab note - cut at 40 fold for fold (fold change of native GIP), GIP receptor: t if strictly below, f if not.

HAEGTFISDYSTILDNLAARDFVNWLLAQKITD [Co-agonist 9]
t

QUERY: Determine whether this sequence shows fold (fold change of native GIP), GIP receptor lower than 40 fold (ties excluded): HAEGTFSDEYSTILDNLAARDFINWLIQTKITD [Co-agonist 5]
RESULT: f

QUERY: Please answer likewise for HVDGTFISDYSTILDNLAARDFINWLIQTKITD [Co-agonist 12]
RESULT: t

QUERY: And what about the sequence HAEGTFISDYSTILDNLAARDFINWLIQTKGKK [Co-agonist 10] ?
RESULT: f

QUERY: Ok, now HADGTFISDYSTILDNLAARDFINWLIQTKIKD [Co-agonist 17]
RESULT: t

QUERY: Another sequence to check: HAEGTFISDYSTILDNLAARDFINWLIQTKITD [Co-agonist 1]
RESULT: f
